All values here come from the supplement of paper PMC9170038.

system: MS2 coat protein; experiment: apparent KD of MS2 coat protein; higher = weaker reporter binding; details: Eterna round: R107; input ligand: none
Recorded apparent KD of MS2 coat protein for the following sequences
Entry rule: numbers only, all in nM.

For CCCAGUCAUAACAAAGGAAAUAUACUCGAAGGAGCGUCAUAGUAGGCAGGUAGGUCGCGAGACAUGAGGAUCACCCAUGUAGAGA [swwvmullin] , what is its reported apparent KD of MS2 coat protein? 47.5

For UUACAUGAGGAUCACCCAUGUCAUACAGAAGGAGCGUCACAUAAGACAGGUAGGUCGCUGUUAUUUCAUACUGUUAUAUCCUCUA [JR_Nu_ExcArginiA_Sub029] , what is its reported apparent KD of MS2 coat protein? 40.3

For AGCCGGAUUACGGCCGCCACUGUAGACGUGACGAAAGUCGCGUCAACAUGAGGAUCACCCAUGUACAGGACCGGGUGGUCCGGCA [Omei Trp B SS A v3] , what is its reported apparent KD of MS2 coat protein? 9.61

For GCUGCCAUACGAAGGAGCGCUGUUGUAGUGAGGCGAACAUGAGGAUCACCCAUGUGGCAGCAGCAGGUAGGUCGCGUAUGGCAGC [EAB #13] , what is its reported apparent KD of MS2 coat protein? 18.6

For UAUCGUCAGACGGCCGCCACUAGAACAUGAGGAUCACCCAUGUAGUGGCCGGAUACCUCAAUAACUAGGACCGGGUCUGACGAAU [(Trp1)-(Ms2)-(T)'-(M)'-(Trp2)_Design17] , what is its reported apparent KD of MS2 coat protein? 52.2

---

Recorded apparent KD of MS2 coat protein for the following sequences
test system: MS2 coat protein; assay: apparent KD of MS2 coat protein; higher = weaker reporter binding; details: Eterna round: R101; input ligand: FMN 200 uM
Entry rule: numbers only, all in nM.

Some solved cases for reference:
[[record]]
seq_string = "GGUCGUCACAUAUACAUGAGGAUCACCCAUGUCAAAAGACAUGAGGAUAUGGAUCCUAAUUGGAUCCAGAAGGCAUGGACGACC [#HiddenHairpinInALoop - Mat - Same State NG 3 - JL Mod - D11] (puzzle (switch architecture): Same State NG 3)"
measured_result = 21.4

[[record]]
seq_string = "UUAUUUUUACAGAAGGUUUAAUAAUAUAUAAGAGAAGGAUAUGUAACAUGAGGAUCACCCAUGUUUCACCCAUAUGAGGAUCAU [Astosinvert#10] (puzzle (switch architecture): Inverted Exclusion NG 1)"
measured_result = 7.94

[[record]]
seq_string = "AAAUAACUCGAAGGAUAUCAGGGUGCACCUCAGUAAAACUGAGGUGCACCCUGAGAAGGUCGAGGAUCACCCGACCUAAAUAAA [#SharedSequence SLExNG1: 5-2] (puzzle (switch architecture): Small Loop Exclusion NG 1)"
measured_result = 19.8

[[record]]
seq_string = "UGUCGGAGCAGAGGAUAUUACAUGAGGAUCACCCAUGUAUGAACCAAUAGCUGGAAACAGCAAUGUAAGAAGGCUGCUCCGACA (puzzle (switch architecture): Exclusion NG 2)"
measured_result = 177

[[record]]
seq_string = "UCGGCCCGGGAGAAGGACAUGAGGAUCACCCAUGUCGCCGGGCCCGGGAAACCGGGCCCGGCCAUGUAGGAUAUCCCGGGCCGA [#This is a good prank 2] (puzzle (switch architecture): Inverted Exclusion NG 2)"
measured_result = 4.79

[[record]]
seq_string = "ACAGGUCGUGAGAAGGCGUGUGGCACCGUCGAAAGACGGUGCAAUUAAGAUCUUCGAGGAUCACCCGAGGAUAUCACGACCUGA [#SharedSequence - IExNG2: 18] (puzzle (switch architecture): Inverted Exclusion NG 2)"
measured_result = 70.4

[[record]]
seq_string = "CCUGCACCUCAAGGAUAUCCAGUCGAAACGACUGGAGAAGGUGAGGAUCACCCACCUAGCCUGACGAAAGUCAGGCAUGCAGGA [#SharedSequence - ExNG1-1] (puzzle (switch architecture): Exclusion NG 1)"
measured_result = 32.8


Field: next sequence
For AAAUAACUUGAAGGAUAUGACCCUCGAGGUGACUAAAAGUCACCUCGAGGGUCAGAAGGUCGAGGAUCACCCGACCUAAAUAAA [#SharedSequence SLExNG1: 6-1] (puzzle (switch architecture): Small Loop Exclusion NG 1) , what is its reported apparent KD of MS2 coat protein? 6.69

---

Recorded apparent KD of MS2 coat protein for the following sequences
test system: MS2 coat protein; assay: apparent KD of MS2 coat protein; designed switch direction (-1 OFF switch, 1 ON switch): -1; higher = weaker reporter binding; conditions: input ligand: microRNA oligo, concentration not stated
Entry rule: numbers only, all in nM.

[[record]]
seq_string = "UAAGUGCUGCGAGGAUAUACAUGAGGAUCACCCAUGUGGAUGUCUGAGGCUUUGCCUCAGACGAUGUAGAAGGCGCAGUACAAU [Mat - Exclusion NG 2 - Mod of JL - D51] (Eterna round: R96, puzzle: Exclusion NG 2)"
value_type = "apparent KD of MS2 coat protein"
measured_result = 11.1

[[record]]
seq_string = "AACCUAAGGCAAAGCUUUAGGUGUACAUGAGGAUCACCCAUGUAGGAUAUGGUAGGCAAAGCUUACCAGAAGGACAUUAUGAUA [Mat - Exclusion NG 3 - Mod of JL - D53] (Eterna round: R96, puzzle: Exclusion NG 3)"
value_type = "apparent KD of MS2 coat protein"
measured_result = 27.5

[[record]]
seq_string = "UUUGUAUAGGUAGGAUAUACUUUCAAUUUUUUUUUCCUUACAUGAGGAUCACCCAUGUUUACAUUGUAGAAGGACCUCAUUGUU [JR_ExcNG2_Sub049] (Eterna round: R96, puzzle: Exclusion NG 2)"
value_type = "apparent KD of MS2 coat protein"
measured_result = 325


Field: next sequence
Recorded apparent KD of MS2 coat protein for CUGUUUUUCGCAGGAUAUGCUUCUCCUUUAUUAGCAGAAGGGCGUUAAACAUGAGGAUCACCCAUGUAUGGUAAUGACAUUUUC [JR_ExcNG1_Sub061] (Eterna round: R96, puzzle: Exclusion NG 1) with MS2 coat protein, please? 18.2

---

system: K4 kissing-loop RNA reporter; assay: apparent KD of K4 kissing-loop reporter; higher = weaker reporter binding; conditions: Eterna round: R107; input ligand: FMN 200 uM;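 also: bound reporter read as fluorescence of individual clusters on recovered sequencing chips by microscopy, with normalized cluster intensities fitted with a binding model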
Recorded apparent KD of K4 kissing-loop reporter for the following sequences
Entry rule: numbers only, all in nM.

Recorded apparent KD of K4 kissing-loop reporter for CCGAAGAACCAGUGAUGUUGGUUGACUAGACAGGAUAUGAGCAACAUCAGAAGGGUCUGGCUUCGGGAGUGAGUCGCGCUGACUU [Reverigeed] with K4 kissing-loop RNA reporter, please? 260

Recorded apparent KD of K4 kissing-loop reporter for CAGGCGACUAUCGAUACCAGAUGAUAUCGACUACUUGAGUGAUGUUCGAUUAAAGGCAUUAUCCCUUGGCAGCGACUGGACACAU [theeternabot_sameState_KL_Theo_B_24] with K4 kissing-loop RNA reporter, please? 706

Recorded apparent KD of K4 kissing-loop reporter for GCAUCAUGCUACGAUACCAGAAGUUCCCUUUAGUGUAGUGAUGUUGCAGAUAUUGCUUACUUCCCUUGGCAGCGUUUGACGGGUA [theeternabot_sameState_KL_Theo_B_35] with K4 kissing-loop RNA reporter, please? 256

Recorded apparent KD of K4 kissing-loop reporter for CAGGUGCUGAUGCGGUGGCCGGUGGUCGUGCGAGGACCGGUACGGCCGCCACUCGCAUGAGUGAUGUUCAUGUGUCGUCGUCGUC [whbob_EX_Tryp_A_t2] with K4 kissing-loop RNA reporter, please? 229

Recorded apparent KD of K4 kissing-loop reporter for GGAGAGGUCUUGUUUGGAUGUGAUUAAUGGCGAGGACCGGUACGGCCGCCACUCGGGUGAUGUUAGUGAUGUUGAUGUAGUGAUG [uyumullin] with K4 kissing-loop RNA reporter, please? 150

Recorded apparent KD of K4 kissing-loop reporter for CUCGUGGGUUUGAGAGGGCUUGUGGGAAGUGAGGAUAUUUAGGGAGGGAGAAGGUACUAUAGAAUAUAGUGAUGUUAUAUAUGGG [SSFMNA.U] with K4 kissing-loop RNA reporter, please? 264

---

system: MS2 coat protein; test: apparent KD of MS2 coat protein; designed switch direction (-1 OFF switch, 1 ON switch): 1; higher = weaker reporter binding; conditions: input ligand: FMN 200 uM
Recorded apparent KD of MS2 coat protein for the following sequences
Entry rule: numbers only, all in nM.

Some solved cases for reference:
[[record]]
seq_string = "GCGGAAUGGUGUGACAUGAGGAUCACCCAUGUAACCUCAUGUAAGGAUAUCGGGAAGAAGAAAACCGAGAAGGUACGGUGACGC [AK SSNG3-V2-28] (Eterna round: R96, puzzle: Same State NG 3)"
value_type = "apparent KD of MS2 coat protein"
unit = "nM"
measured_result = 197

[[record]]
seq_string = "AGGCUCAGAGCAGGAUAUAUGUCUCGAGCUUCGGCUCGAGACAUGAGGAUCACCCAUGUAAUAACAUAGAAGGGCUCUGAGCCA [SSNG2/1-B1] (Eterna round: R96, puzzle: Same State NG 2)"
value_type = "apparent KD of MS2 coat protein"
unit = "nM"
measured_result = 11.2

[[record]]
seq_string = "GUUAGGAAUCUAGCACACAUGAGGAUCACCCAUGUUAGUGGGAAGGAUAUGGUACAGAAACUGUACCAGAAGGUCUUAUUGUUU [Omei SS(NG) 3 AV14] (Eterna round: R96, puzzle: Same State NG 3)"
value_type = "apparent KD of MS2 coat protein"
unit = "nM"
measured_result = 93.8

[[record]]
seq_string = "AAGAUGCUCGUAGGAUAUUGGAAAGGAAGUGUACAAGAAGGACGGUGUCACAUGAGGAUCACCCAUGUUACAGUCUAAGGACUA [PowerStrip SSNG 1.16] (Eterna round: R96, puzzle: Same State NG 1)"
value_type = "apparent KD of MS2 coat protein"
unit = "nM"
measured_result = 21.5

[[record]]
seq_string = "GUAGCAUGCAGGCAGGAUAUUCAUAUUAAAACAUGAGGAUCACCCAUGUAGGCCGAAAGGCCUUGGGAGAAGGGCCACAUGCUAC [Xeonanis - 18] (Eterna round: R96, puzzle: Same State 2)"
value_type = "apparent KD of MS2 coat protein"
unit = "nM"
measured_result = 36.8


For GACCGCGAGGAAGGAUAUGGAGCCUUAUUGGCUCCAGAAGGUCCAUAAAGGACAUGAGGAUCACCCAUGUGGGCUGAAGCGGUC [Fiskers NG1ss - 9] (Eterna round: R96, puzzle: Same State NG 1) , what is its reported apparent KD of MS2 coat protein? 22

For GUAUCUACAGGUUGCGAUGCUCGUCUGAUACAUGAGGAUCACCCAUGUUAUAGCCCUGUGCUUGCGCAGGGCUGAUU [Sensor for hsa-mir-208a ( MOD of Tearor v.2 )] (Eterna round: R96, puzzle: Sensor for hsa-mir-208a) , what is its reported apparent KD of MS2 coat protein? 105

For GCUAGAAUAAAUGCUAACAUGAGGAUCACCCAUGUAUGUUGGCAGGAUAUCGUUUGCAAAGCAAACGAGAAGGGCCAUACUAGC [Mat - Same State NG 3 - JL Mod - D26] (Eterna round: R96, puzzle: Same State NG 3) , what is its reported apparent KD of MS2 coat protein? 23.1

For GAGGGACAGACCAACAUGAGGAUCACCCAUGUCCUCGGAGGUCAGGAUAUCCGGAGGUAGCCGAAGGAGAAGGGACGGUGAACC [AK SSNG3-V2-30.1] (Eterna round: R96, puzzle: Same State NG 3) , what is its reported apparent KD of MS2 coat protein? 322
